Test system: CT-L activity of purified 20S human proteasomes (β5, β5i, β1i)
Experiment: Enzyme kinetics assay, CT-L activity of purified 20S proteasomes
Format: biochemical
Settings: purified 20S CP and IP; β5, β5i, β1i; result in words
ASSAY_READOUT: Inhibition of the CT-L activity of purified proteasomes

[[record]]
compound = "Cc1ccc(OS(=O)(=O)c2cccc(C(F)(F)F)c2)c(-c2cc(C3CCCCC3)n(CCN[C@@H]3CCNC3)n2)c1 [G4-40]"
experimental_result = "potently inhibit"

[[record]]
compound = "Cc1ccc(OS(=O)(=O)c2cccc(C(F)(F)F)c2)c(-c2cc(C3CCCNC3)n(CCN[C@@H]3CCNC3)n2)c1 (stereo partly shown) [G4-41]"
experimental_result = "potently inhibit"

[[record]]
compound = "Cc1ccc(OS(=O)(=O)c2cccc(C(F)(F)F)c2)c(-c2cc(C3CCCN(C(=O)N[C@@H]4CCNC4)C3)n(CCN[C@@H]3CCNC3)n2)c1 (stereo partly shown) [G4-42]"
experimental_result = "potently inhibit"

